These data points were gathered from ChEMBL document CHEMBL1961873.

- Assay Target: Sphingosine kinase 2 (Homo sapiens) (UniProt Q9NRA0)
- Sequence (whole entry): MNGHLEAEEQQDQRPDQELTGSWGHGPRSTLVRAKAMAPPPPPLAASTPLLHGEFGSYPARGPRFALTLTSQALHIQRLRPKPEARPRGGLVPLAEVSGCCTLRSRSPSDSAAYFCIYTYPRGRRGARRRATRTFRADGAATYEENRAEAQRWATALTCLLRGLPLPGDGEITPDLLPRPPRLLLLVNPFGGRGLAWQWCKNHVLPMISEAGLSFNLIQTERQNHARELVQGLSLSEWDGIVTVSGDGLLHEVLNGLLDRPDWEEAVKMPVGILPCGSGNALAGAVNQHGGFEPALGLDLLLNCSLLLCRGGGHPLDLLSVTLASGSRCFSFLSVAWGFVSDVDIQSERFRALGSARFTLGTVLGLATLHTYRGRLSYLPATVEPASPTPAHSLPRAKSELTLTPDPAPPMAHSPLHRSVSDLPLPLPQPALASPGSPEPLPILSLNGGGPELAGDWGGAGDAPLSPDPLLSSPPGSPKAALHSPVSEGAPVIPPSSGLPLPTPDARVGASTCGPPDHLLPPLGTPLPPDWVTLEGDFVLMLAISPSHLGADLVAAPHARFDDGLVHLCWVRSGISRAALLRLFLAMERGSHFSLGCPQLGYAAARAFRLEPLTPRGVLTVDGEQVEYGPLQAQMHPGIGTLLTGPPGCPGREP
- Condition Set: at 1 µM
- Description: GSK_PKIS: SPHK2 mean inhibition at 1 uM [Nanosyn]
Result Type: inhibition (%)
One number for each entry, in %.

Worked examples, 3 compounds total:
Structure Smiles String: Cc1ccc(NC(=O)CC2CC2)cc1-c1ccc(C(=O)NCC2CC2)cc1
Experimental Result: -0.13
//
Structure Smiles String: COc1cccc(-n2ncc3c(N/N=C/c4ccc(S(C)(=O)=O)cc4)ncnc32)c1
Experimental Result: -2.05
//
Structure Smiles String: ON=C1CCc2cc(-c3nc(C4CCNCC4)[nH]c3-c3ccncc3)ccc21
Experimental Result: -0.91

Quick request: inhibition for each listed item, please.
1. c1ccc(Nc2ncc(-c3ccccc3)o2)cc1
2. Nc1ccc(C#Cc2cncnc2Nc2ccc(OCc3cccc(F)c3)c(Cl)c2)cc1
3. CS(=O)(=O)CCNCc1nc(-c2ccc3ncnc(Nc4ccc(OCc5cccc(C(F)(F)F)c5)cc4)c3c2)cs1
4. COc1cccc(-n2ncc3c(N/N=C/c4ccc(C)cc4)ncnc32)c1
5. Cc1ccc2c(c1)/C(=N/Nc1ccc(S(N)(=O)=O)cc1)C(=O)N2

[7.14, 0, -0.46, -0.22, 0.62]

State recorded inhibition for all listed compounds.
1. N#Cc1c(NC(=O)c2ccccc2F)sc2c1CCCC2
2. Cc1ccc(Nc2ccnc(Nc3cccc(C(N)=O)c3)n2)cc1O
3. COc1cc2ncnc(Nc3ccc(C)c(O)c3)c2cc1OC
4. [O-][S+]1CCN(Cc2ccc(-c3ccc4ncnc(Nc5ccc(OCc6ccccc6)c(Cl)c5)c4c3)o2)CC1
5. c1ccc(Cc2nc3ccc(Nc4ncnc5ccccc45)cc3[nH]2)cc1

-1.81
0.08
0.12
2.21
-0.64

====

- Assay Target: Receptor tyrosine-protein kinase erbB-4 (Homo sapiens);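 note: each value is a mean percent inhibition of ERBB4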
- Condition Set: at 1 µM
Exercise: state measured inhibition for each of the compounds provided.
Numbers only, in %.

Structure Smiles String: CN(C)C(=O)O[C@@H]1CN[C@@H](C#Cc2cc3ncnc(Nc4ccc(OCc5cccc(F)c5)c(Cl)c4)c3s2)C1
Measure Unit: %
Experimental Result: 130
//
Structure Smiles String: Oc1cccc(-c2nc(-c3ccccc3)[nH]c2-c2ccncc2)c1
Measure Unit: %
Experimental Result: 19.4
//
Structure Smiles String: COC(=O)c1cncc(/C=C/c2c(C)cc(O)cc2C)c1
Measure Unit: %
Experimental Result: 10

Let us examine a further case.
Fill blank: measured inhibition of the compound OCc1ccc(-c2nc(-c3ccccn3)c(-c3ccc4c(c3)OCO4)[nH]2)cc1 is ____.
12.7
